subject-of-test: Ribosomal protein S6 kinase alpha-2 (Homo sapiens) (UniProt Q15349)
Sequence (Q15349 whole entry): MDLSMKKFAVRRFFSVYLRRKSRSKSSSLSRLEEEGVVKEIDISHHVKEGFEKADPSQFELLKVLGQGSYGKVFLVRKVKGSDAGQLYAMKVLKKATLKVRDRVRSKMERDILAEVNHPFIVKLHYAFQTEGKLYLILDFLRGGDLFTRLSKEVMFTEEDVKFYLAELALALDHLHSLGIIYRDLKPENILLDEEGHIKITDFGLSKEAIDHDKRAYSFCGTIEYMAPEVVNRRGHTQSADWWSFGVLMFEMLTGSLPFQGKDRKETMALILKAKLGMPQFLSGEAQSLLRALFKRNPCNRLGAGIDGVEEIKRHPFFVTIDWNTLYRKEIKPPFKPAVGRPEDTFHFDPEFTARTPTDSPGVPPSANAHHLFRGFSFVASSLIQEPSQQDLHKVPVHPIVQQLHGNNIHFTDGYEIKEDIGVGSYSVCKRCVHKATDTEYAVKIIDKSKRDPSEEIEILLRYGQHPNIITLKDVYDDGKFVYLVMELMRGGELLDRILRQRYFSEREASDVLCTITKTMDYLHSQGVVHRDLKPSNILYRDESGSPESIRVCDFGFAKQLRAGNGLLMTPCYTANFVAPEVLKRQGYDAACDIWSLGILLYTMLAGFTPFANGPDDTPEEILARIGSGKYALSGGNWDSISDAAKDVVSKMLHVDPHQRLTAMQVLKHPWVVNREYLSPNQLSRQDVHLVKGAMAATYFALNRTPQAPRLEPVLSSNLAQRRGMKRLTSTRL
particulars: at 1 µM
quantity: residual activity

Reference set, count: 5
> print(dat)
                                   compound                           subject.of.test  measured.value
1   N#C/C(=C\c1ccc(O)c(O)c1)C(=O)NCc1ccccc1  Ribosomal protein S6 kinase alpha-2 (Homo sapiens) (UniProt Q15349)            122%
2  Cn1c2ccccc2c2c3c(c4c5ccccc5n(CCC#N)c4c21)CNC3=O  Ribosomal protein S6 kinase alpha-2 (Homo sapiens) (UniProt Q15349)              0%
3    O=C1Cc2c([nH]c3ccc(Br)cc23)-c2ccccc2N1  Ribosomal protein S6 kinase alpha-2 (Homo sapiens) (UniProt Q15349)             12%
4           Nc1ncnc2[nH]nc(Nc3ccc(F)cc3)c12  Ribosomal protein S6 kinase alpha-2 (Homo sapiens) (UniProt Q15349)             59%
5  O=C1NC(=O)C(c2cn(CCCO)c3ncccc23)=C1c1cnccn1  Ribosomal protein S6 kinase alpha-2 (Homo sapiens) (UniProt Q15349)             63%

Q. Which residual activity is listed for Nc1nc(Nc2ccc(S(N)(=O)=O)cc2)nn1C(=O)c1c(F)cccc1F ?
A. 19%

Q. For the compound shown here, CN(C)S(=O)(=O)c1ccc2c(c1)/C(=C/c1cc3c([nH]1)CCCC3)C(=O)N2 , give the reported residual activity.
A. 36%

Q. Recorded residual activity of O=C1Nc2ccc(Cl)cc2/C1=C/c1cc(Cl)c(O)c(Cl)c1 , please.
A. 88%

Q. Item CSc1nc(-c2ccc(F)cc2)c(-c2ccnc(NC(C)c3ccccc3)c2)[nH]1 (stereo unspecified) has what recorded residual activity?
A. 40%

Q. For the compound CCCC(=O)Oc1ccc2[nH]c(C(=O)c3cc4ccccc4[nH]3)cc2c1 , what residual activity is on record?
A. 102%

Q. Requested read-out: residual activity. Entry: Nc1n[nH]c2nc3ccccc3nc12
A. 93%

###

subject-of-test: Dual specificity mitogen-activated protein kinase kinase 6 (Homo sapiens) (UniProt P52564)
Sequence (P52564 whole entry): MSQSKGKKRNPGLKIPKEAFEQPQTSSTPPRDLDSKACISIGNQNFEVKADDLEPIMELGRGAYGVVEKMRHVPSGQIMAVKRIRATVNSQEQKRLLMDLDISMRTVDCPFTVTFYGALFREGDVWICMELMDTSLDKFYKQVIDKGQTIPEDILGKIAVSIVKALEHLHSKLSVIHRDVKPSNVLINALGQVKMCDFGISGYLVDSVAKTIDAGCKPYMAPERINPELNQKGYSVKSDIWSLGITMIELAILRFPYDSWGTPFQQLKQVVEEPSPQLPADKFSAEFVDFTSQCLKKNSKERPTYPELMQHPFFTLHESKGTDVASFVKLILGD
particulars: at 1 µM
Measured residual activity by item
Report the value in % with no unit label.

> print(dat)
                                   molecule  measured.value
1  COc1ccc2c(c1)c(C1=C(c3c[nH]c4ccccc34)C(=O)NC1=O)cn2CCCN(C)C             110

Q. Fill in the blank: the reported residual activity of Nc1ncnc2c1c(-c1ccc(Oc3ccccc3)cc1)cn2C1CCCC1 is ____.
A. 85

Q. Return reported residual activity; argument: NC(=O)Nc1sc(-c2ccc(F)cc2)cc1C(N)=O
A. 97

Q. Look up residual activity: Fc1ccc(-c2nc3n(c2-c2ccncc2)CCS3)cc1
A. 61

Q. Query (molecule): CCCC(=O)Oc1ccc2[nH]c(C(=O)c3cc4ccccc4[nH]3)cc2c1 ; field requested: residual activity
A. 99

Q. Data request, read-out residual activity, for COc1cc2ncnc(Nc3cccc(Cl)c3)c2cc1OC
A. 47

Q. Which residual activity reading was recorded for the molecule N#C/C(=C1/Nc2ccccc2S1)c1ccnc(NCCc2cccnc2)n1 ?
A. 84
